system: RKO; assay: cells; format: cell-based; details: read-out: Basal_Viability ATP RKO summarized IC50
testReadout: pIC50
Answers are plain numbers, as −log10 of the molar value.

recordSmiles: CN(C)c1ccc(C(=C2C=CC(=[N+](C)C)C=C2)c2ccccc2)cc1
testReadout: pIC50
observed: 6.93
//
recordSmiles: Nc1nc(=S)c2[nH]cnc2[nH]1
testReadout: pIC50
observed: 6.46

Please look at the following compound next.
pIC50 reported for this compound "Oc1c(Br)cc(Br)c2cccnc12" : 6.79

###

test system: HT-29; assay: cells; format: cell-based
testReadout: Basal_Viability ATP HT-29 IC50/EC50 (nM)
One number for each entry, in nM.

Example entries begin here.
molecule: CO[C@@]12[C@H](COC(N)=O)C3=C(C(=O)C(C)=C(N)C3=O)N1C[C@@H]1N[C@@H]12
observed: 2570.5
--
molecule: CCc1oc2ccccc2c1C(=O)c1cc(I)c(O)c(I)c1
observed: 1

Please look at the following molecule next.
Basal_Viability ATP HT-29 IC50/EC50 reported for this molecule Cc1cc(C(C#N)c2ccc(Cl)cc2)c(Cl)cc1NC(=O)c1cc(I)cc(I)c1O (stereo not shown) : 125.5
